What CC50 at 72 h was measured for each of the following?
assay: Cytotoxicity, HepG2 cell growth; format: cell-based; details: human, hepg2 cells; 3 days; read-out: Cytotoxicity (IC50) HepG2 cell
One number for each entry, in µM.

Measured CC50 at 72 h, OCc1cc2c(Br)cc3c(c2c(-c2ccc4c(c2)OCO4)c1CO)OCO3 [ZHU-IX-135-1] : 12

Entry under test: O=C1OC(=O)c2c1cc1cc3c(cc1c2-c1cc2c(cc1Br)OCO2)OCO3 [ZHU-IX-120-3] . Its CC50 at 72 h was 11

Could I get CC50 at 72 h for every one of these entries?
1. O=C1OCc2c1cc1c(Br)cc3c(c1c2-c1cc2c(cc1Br)OCO2)OCO3 [ZHU-IX-143]
2. Cc1cc2ccc3c(c2c(-c2ccc4c(c2)OCO4)c1CO)OCO3 [ZHU-IX-159]
3. Cc1cc2ccc3c(c2c(-c2ccc4c(c2)OCO4)c1C)OCO3 [ZHU-IX-163-2]
4. O=C1OCc2c1cc1ccc3c(c1c2-c1ccc2c(c1)OCO2)OCO3 [Compound 145]
5. O=C1OCc2cc3ccc4c(c3c(-c3ccc5c(c3)OCO5)c21)OCO4 [ZHU-IX-139-2]
6. O=C(O)c1cc2ccc3c(c2c(-c2ccc4c(c2)OCO4)c1CO)OCO3 [ZHU-IX-157]
7. OCc1cc2ccc3c(c2c(-c2ccc4c(c2)OCO4)c1CO)OCO3 [ZHU-IX-124-2]

-- reply
1. 20
2. 16
3. 17
4. 26
5. 12
6. 26
7. 16

Hello, I would appreciate it if you could give CC50 at 72 h for each entry below.
1. O=C1OC(=O)c2c1cc1c(Br)cc3c(c1c2-c1cc2c(cc1Br)OCO2)OCO3 [ZHU-IX-120-1]
2. O=C1OC(=O)c2c1c(Br)c1cc3c(cc1c2-c1cc2c(cc1Br)OCO2)OCO3 [ZHU-IX-120-2]

-- reply
1: 6; 2: 6

---

tested on: HBsAg; assay: microbe, parasite or virus in culture; assay type: cell-based, Hepatitis B virus; conditions: Hepatitis B virus, 144 h, read-out: Anti-viral activity (ED50) HbsAg
MEASURED QUANTITY: EC50 (µM)
Answers are plain numbers, in µM.

Solved entries (count: 3):
Looking up Cc1c(CO)cc2ccc3c(c2c1-c1ccc2c(c1)OCO2)OCO3 [ZHU-IX-122-1] , I see its EC50 listed as 10

Noted for OCc1cc2ccc3c(c2c(-c2ccc4c(c2)OCO4)c1CO)OCO3 [ZHU-IX-124-2] : its EC50 reads 10

Lab note: measured EC50 of O=C(O)c1cc2ccc3c(c2c(-c2ccc4c(c2)OCO4)c1CO)OCO3 [ZHU-IX-157] was 10

Let's switch to this compound now.
# EC50 (compound: O=C1OCc2cc3ccc4c(c3c(-c3ccc5c(c3)OCO5)c21)OCO4 [ZHU-IX-139-2] ) is 10

---

experiment: Solubility: saturated solution in PBS at room temperature; format: physicochemical; conditions: aqueous buffer
MEASURED QUANTITY: solubility (µM)
One number for each entry, in µM.

Some compounds with recorded solubility:
Record OCc1cc2c(Br)cc3c(c2c(-c2ccc4c(c2)OCO4)c1CO)OCO3 , field solubility: 24.8

// O=C1OCc2c1cc1c(Br)cc3c(c1c2-c1cc2c(cc1Br)OCO2)OCO3 : solubility value = 11.9

Briefly, solubility measured for Cc1cc2ccc3c(c2c(-c2ccc4c(c2)OCO4)c1C)OCO3 : 18.4

Recorded result, OCc1cc2ccc3c(c2c(-c2ccc4c(c2)OCO4)c1CO)OCO3 , solubility: 127

The compound O=C(O)c1c(CO)cc2ccc3c(c2c1-c1ccc2c(c1)OCO2)OCO3 showed solubility equal to 255

Now for the compound whose solubility we want.
response.value for O=C1OC(=O)c2c1c(Br)c1cc3c(cc1c2-c1cc2c(cc1Br)OCO2)OCO3 (field: solubility) = 13.1
